# viability at 30 µM per record follows
Assay: Cytotoxicity against mouse Melan-a cells assessed as cell viability at 30 uM
Format: cell-based
Settings: Melan-a cells, read-out: Activity
assay endpoint: viability at 30 µM

> print(dat)
                      molecule.smiles      assay.endpoint  result
1          Cc1cccc(NC(=O)c2ccccc2C)c1  viability at 30 µM    5.8%
2       Cc1cc(C)cc(NC(=O)c2ccccc2C)c1  viability at 30 µM   25.6%
3         COc1cccc(NC(=O)c2ccccc2C)c1  viability at 30 µM   13.4%
4   COc1ccc(NC(=O)c2cccc(C)c2)c(OC)c1  viability at 30 µM    3.2%
5      COC(=O)c1ccc(NC(=O)c2ccco2)cc1  viability at 30 µM   -8.4%
6  COC(=O)c1ccccc1NC(=O)c1ccc(C#N)cc1  viability at 30 µM      8%
7   CCCCOc1ccc(NC(=O)c2ccc(CC)cc2)cc1  viability at 30 µM  -10.8%
